Assay Procedure: Cytotoxicity (CC50) alongside HCV GT1a replicon assay
Type: cell-based
Condition Description: HCV GT1a (H77) replicon cells; replicon genotype 1a (H77)
Measured Metric: CC50

[
  {
    "Molecule": "C[C@H](NP(=O)(OC[C@@]1(N=[N+]=[N-])O[C@@H](n2ccc(=O)[nH]c2=O)[C@H](O)[C@@H]1O)Oc1cccc2ccccc12)C(=O)OCc1ccccc1 (stereo partly shown)",
    "Endpoint Value": "> 10 µM"
  }
]

====

Assay Procedure: Cell viability (CC50) alongside ZIKV antiviral assay, Cell-titer Glo
Format: cell-based
Condition Description: human, Huh-7 cells, summary statement, cytotoxicity in cell culture; read-out: Huh-7 cell CC50
Measured Metric: CC50 at 3 day

[
  {
    "Compound": "C[C@H](NP(=O)(OC[C@@]1(N=[N+]=[N-])O[C@@H](n2ccc(=O)[nH]c2=O)[C@H](O)[C@@H]1O)Oc1cccc2ccccc12)C(=O)OCc1ccccc1 (some centres unmarked)",
    "Measured Metric": "CC50 at 3 day",
    "Endpoint Value": "> 100 µM"
  },
  {
    "Compound": "CCOC(=O)[C@H](C)NP(=O)(OC[C@@]1(N=[N+]=[N-])O[C@@H](n2ccc(=O)[nH]c2=O)[C@H](O)[C@@H]1O)Oc1cccc2ccccc12 (some centres unmarked)",
    "Measured Metric": "CC50 at 3 day",
    "Endpoint Value": "> 100 µM"
  }
]
